- test-system: MOZ-KAT6A (Homo sapiens, UniProt Q92794, A567V)
- Sequence (Q92794 with tags, fused parts or gaps A567V): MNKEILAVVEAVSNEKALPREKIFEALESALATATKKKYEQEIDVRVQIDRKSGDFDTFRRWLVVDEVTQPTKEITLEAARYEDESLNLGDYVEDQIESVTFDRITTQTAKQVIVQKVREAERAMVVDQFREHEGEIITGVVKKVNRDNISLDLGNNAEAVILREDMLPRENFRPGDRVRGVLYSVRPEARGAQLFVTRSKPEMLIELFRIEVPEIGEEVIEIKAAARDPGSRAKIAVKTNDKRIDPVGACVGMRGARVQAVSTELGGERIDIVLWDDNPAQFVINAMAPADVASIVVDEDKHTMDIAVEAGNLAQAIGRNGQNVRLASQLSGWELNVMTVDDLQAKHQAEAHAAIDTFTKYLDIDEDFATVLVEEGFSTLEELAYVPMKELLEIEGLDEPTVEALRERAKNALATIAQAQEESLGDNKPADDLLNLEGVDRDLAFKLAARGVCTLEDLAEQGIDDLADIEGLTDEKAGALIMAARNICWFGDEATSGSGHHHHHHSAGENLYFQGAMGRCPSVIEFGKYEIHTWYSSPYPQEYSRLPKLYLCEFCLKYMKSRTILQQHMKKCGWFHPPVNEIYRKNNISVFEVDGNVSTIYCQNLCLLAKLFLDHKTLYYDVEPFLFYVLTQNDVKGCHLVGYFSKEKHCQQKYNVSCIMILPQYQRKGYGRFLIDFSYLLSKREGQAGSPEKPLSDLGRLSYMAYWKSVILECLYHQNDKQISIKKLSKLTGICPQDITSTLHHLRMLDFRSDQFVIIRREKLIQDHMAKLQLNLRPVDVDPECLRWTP
- measurement-description: Acetyltransferase biochemical assay (AlphaScreen), KAT6A
Structures can show the parent of a compound that is named as a salt.
With a cut-off of 10 µM, any IC50 strictly below it is called satisfied; any IC50 meeting it or above is called not satisfied.

Check out these entries, answers already filled in.
O=S(=O)(Nc1noc2ccccc12)c1ccc(C2CCCCC2)cc1 = not satisfied
O=S(=O)(Nc1noc2cccc(Cl)c12)c1ccc(-n2cccn2)cc1 = not satisfied
CCc1ccc(OC)c(S(=O)(=O)Nc2noc3cc(-c4cncnc4)ccc23)c1 = not satisfied
CCc1ccc(OC)c(S(=O)(=O)Nc2noc3ccc(C(=O)N(C)C)cc23)c1 = not satisfied
COc1cc(Br)ccc1S(=O)(=O)Nc1noc2ccccc12 = not satisfied
COc1ccc(C(F)(F)F)c(OC)c1S(=O)(=O)Nc1noc2cccc(OC)c12 = satisfied
COC(=O)c1ccc(Cl)cc1S(=O)(=O)Nc1noc2cccc(Cl)c12 = not satisfied
CCc1ccc(OC)c(S(=O)(=O)Nc2noc3ccc(Cl)cc23)c1 = satisfied
COCc1cc(OC)c2c(NS(=O)(=O)c3c(OC)cccc3OC)noc2c1Cl = satisfied
O=S(=O)(Nc1noc2cccc(Cl)c12)c1cccc(S(F)(F)(F)(F)F)c1 = not satisfied

Please state whether IC50 is below 10 µM for COc1ccc(F)cc1S(=O)(=O)Nc1noc2cccc(Cl)c12 not satisfied

Lab note: IC50 threshold 10 µM. Does this compound come in strictly under it? CCc1ccc(OC)c(S(=O)(=O)Nc2noc3cccc(COC)c23)c1 satisfied

Lab log: compare recorded IC50 with 10 µM; is it strictly lower for COc1c(S(=O)(=O)Nc2noc3cccc(Cl)c23)ccc(Cl)c1Cl ? not satisfied

Problem: For the compound COc1cc(CN)cc(OC)c1S(=O)(=O)Nc1noc2cccc(OC)c12 [Example 210, hydrochloride] , is IC50 under 10 µM? satisfied

Lab note: confirm whether the reported IC50 for this compound is below 10 µM, equality not counting. compound: COc1ccnc2c(S(=O)(=O)Nc3noc4cccc(OC)c34)cccc12 not satisfied

Lab note: IC50 threshold 10 µM. Does this compound come in strictly under it? COc1cccc(OC)c1S(=O)(=O)Nc1noc2c(Br)cc(C)cc12 satisfied
